assay-procedure: Cytotoxicity against mouse osteoblast cells by alamar blue assay
Format: cell-based
outcome-measure: IC50

Record excerpt, results attached:
• O=C(CCCCCO)c1ccc(-c2ccc(F)cc2F)cc1Cl = > 100 µM
• OCCCCCC(O)c1ccc(-c2ccccc2)cc1 (stereo unspecified) = > 100 µM
• O=C(CCCCCO)c1ccc(-c2ccc(F)cc2F)cc1 = > 100 µM
• Cc1cc(C(O)CCCCCO)ccc1-c1ccc(F)cc1F (stereo unspecified) = > 100 µM

Q) Please give measured IC50 of the following entry: `O=C(CCCCCO)c1ccc(-c2ccc(Cl)cc2Cl)cc1`
A) > 100 µM

Q) Please give measured IC50 of the following entry: `O=C(CCCCCO)c1ccc(-c2ccccc2)cc1`
A) > 100 µM
